Target Or System: ATPase family AAA domain-containing protein 2 (Homo sapiens, UniProt Q6PL18)
Sequence (Q6PL18 whole entry): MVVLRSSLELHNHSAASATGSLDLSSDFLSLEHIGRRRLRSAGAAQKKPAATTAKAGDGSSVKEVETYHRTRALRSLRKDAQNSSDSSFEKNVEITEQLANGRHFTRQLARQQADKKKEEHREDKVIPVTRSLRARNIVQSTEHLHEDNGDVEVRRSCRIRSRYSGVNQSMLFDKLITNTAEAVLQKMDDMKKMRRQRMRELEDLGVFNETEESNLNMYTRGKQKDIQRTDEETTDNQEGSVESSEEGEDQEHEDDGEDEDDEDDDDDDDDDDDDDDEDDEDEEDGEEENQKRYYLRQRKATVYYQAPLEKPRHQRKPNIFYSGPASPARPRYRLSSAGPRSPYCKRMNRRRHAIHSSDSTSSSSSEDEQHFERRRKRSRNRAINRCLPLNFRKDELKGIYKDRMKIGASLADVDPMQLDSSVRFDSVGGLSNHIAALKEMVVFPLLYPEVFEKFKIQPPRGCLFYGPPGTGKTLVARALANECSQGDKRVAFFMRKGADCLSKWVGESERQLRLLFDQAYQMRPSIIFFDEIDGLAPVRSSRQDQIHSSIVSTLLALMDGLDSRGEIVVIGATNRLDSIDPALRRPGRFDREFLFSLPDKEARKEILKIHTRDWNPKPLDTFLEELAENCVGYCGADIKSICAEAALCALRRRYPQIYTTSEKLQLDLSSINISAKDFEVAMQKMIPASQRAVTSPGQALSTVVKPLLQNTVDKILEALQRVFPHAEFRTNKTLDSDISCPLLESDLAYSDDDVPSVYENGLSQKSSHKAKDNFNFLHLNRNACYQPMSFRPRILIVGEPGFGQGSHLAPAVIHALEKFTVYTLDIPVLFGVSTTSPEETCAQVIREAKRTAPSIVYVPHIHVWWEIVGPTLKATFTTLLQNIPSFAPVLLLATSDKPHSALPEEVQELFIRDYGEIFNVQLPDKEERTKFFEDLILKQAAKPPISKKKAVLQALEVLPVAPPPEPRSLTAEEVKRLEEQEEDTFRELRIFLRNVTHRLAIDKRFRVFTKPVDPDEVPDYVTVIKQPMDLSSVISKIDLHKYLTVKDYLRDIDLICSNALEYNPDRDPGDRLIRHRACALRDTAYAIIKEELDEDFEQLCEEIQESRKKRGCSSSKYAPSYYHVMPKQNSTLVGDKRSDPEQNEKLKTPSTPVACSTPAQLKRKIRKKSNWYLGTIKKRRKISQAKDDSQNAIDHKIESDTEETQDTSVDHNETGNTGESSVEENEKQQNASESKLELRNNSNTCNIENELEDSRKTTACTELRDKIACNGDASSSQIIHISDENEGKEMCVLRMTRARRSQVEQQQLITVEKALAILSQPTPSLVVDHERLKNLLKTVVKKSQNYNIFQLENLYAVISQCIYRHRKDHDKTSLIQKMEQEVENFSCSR
Assay Readout: IC50 (µM)

I: Cc1cc2ccnc(N[C@@H]3CCNC[C@H]3OC[C@@H]3CCS(=O)(=O)C3)c2[nH]c1=O (racemic)
II: CCc1cc2c(-c3cncc(C)c3)cnc(N[C@@H]3CCNC[C@H]3OCC3CCS(=O)(=O)CC3)c2[nH]c1=O
Sorting ascending by IC50, which comes first: I or II ? To answer, give the label that identifies your chosen option.
II

###

Target Or System: Bromodomain-containing protein 2 (Homo sapiens, UniProt P25440)
Sequence (P25440 whole entry): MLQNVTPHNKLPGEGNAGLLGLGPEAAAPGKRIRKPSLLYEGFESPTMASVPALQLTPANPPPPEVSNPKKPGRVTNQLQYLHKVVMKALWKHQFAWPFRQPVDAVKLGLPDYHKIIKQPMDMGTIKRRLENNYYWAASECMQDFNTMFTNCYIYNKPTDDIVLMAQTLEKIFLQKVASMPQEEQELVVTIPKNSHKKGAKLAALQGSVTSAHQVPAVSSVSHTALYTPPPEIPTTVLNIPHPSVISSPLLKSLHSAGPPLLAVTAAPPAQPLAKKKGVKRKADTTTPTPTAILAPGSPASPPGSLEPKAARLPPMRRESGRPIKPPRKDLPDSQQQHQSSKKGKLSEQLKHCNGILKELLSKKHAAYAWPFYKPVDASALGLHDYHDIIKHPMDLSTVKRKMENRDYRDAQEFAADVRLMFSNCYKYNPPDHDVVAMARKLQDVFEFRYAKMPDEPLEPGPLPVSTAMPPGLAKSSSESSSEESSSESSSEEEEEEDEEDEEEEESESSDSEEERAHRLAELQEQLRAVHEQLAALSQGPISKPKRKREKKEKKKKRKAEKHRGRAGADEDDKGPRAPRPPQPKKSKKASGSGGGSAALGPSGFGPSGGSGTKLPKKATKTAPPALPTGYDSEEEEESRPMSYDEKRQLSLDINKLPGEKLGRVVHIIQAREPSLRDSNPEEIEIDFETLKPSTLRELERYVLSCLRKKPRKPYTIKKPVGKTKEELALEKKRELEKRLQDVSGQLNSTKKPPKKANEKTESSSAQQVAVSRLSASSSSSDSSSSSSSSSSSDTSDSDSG
Test Description: Binding affinity to BRD2 containing BD2 bromodomains (unknown origin) by TR-FRET assay
Assay Readout: IC50

Give the measured IC50 of "Cc1cncc(-c2cnc(N[C@@H]3CCN(C)C[C@H]3OCC3CCS(=O)(=O)CC3)c3[nH]c(=O)c(C)cc23)c1" .
> 50.1 µM

###

Target Or System: Bromodomain-containing protein 3 (Homo sapiens)
Sequence (Q15059 whole entry): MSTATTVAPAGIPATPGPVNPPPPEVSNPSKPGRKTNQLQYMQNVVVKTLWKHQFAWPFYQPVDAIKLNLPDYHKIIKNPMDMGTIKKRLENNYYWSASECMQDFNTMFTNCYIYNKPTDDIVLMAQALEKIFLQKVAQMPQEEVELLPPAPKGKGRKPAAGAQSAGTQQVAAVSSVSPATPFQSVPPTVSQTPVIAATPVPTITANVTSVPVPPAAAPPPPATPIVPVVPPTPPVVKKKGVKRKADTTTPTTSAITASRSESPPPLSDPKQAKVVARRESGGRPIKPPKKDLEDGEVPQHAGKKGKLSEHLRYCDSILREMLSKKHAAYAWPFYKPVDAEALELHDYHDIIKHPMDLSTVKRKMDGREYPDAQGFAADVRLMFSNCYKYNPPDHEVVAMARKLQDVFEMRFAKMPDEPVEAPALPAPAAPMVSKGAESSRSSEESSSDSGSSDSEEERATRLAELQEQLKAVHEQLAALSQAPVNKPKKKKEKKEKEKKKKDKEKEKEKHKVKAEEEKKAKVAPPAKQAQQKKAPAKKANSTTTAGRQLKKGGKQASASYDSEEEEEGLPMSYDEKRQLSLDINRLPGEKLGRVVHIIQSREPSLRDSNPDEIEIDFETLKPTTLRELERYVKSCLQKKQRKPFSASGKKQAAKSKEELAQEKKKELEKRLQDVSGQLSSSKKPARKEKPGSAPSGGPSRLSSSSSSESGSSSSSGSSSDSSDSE
Test Description: Binding affinity to BRD3 in human HUT78 cells incubated for 45 mins by mass spectrometry based bromosphere chemoproteomic assay
pKd: −log10 of the molar value.
Assay Readout: pKd

I: Cc1cncc(-c2ccc(N[C@@H]3CCNC[C@H]3OCC3CCS(=O)(=O)CC3)c3[nH]c(=O)c(C)cc23)c1
II: Cc1cncc(-c2cnc(N[C@@H]3CCNC[C@H]3OCC3CCCCC3)c3[nH]c(=O)c(C)cc23)c1
Sorting ascending by pKd, which comes first: I or II ? To answer, give the label that identifies your chosen option.
II
(II: 5.70, I: 6.00)

###

Test Description: physchem
Particulars: phosphate buffered saline, pH 7.4, solubility
Description: Solubility of the compound in phosphate buffered saline at pH 7.4 after 1 hr by CLND method
Assay Readout: solubility kinetic at 1 h (µM)

// known answers, use as guide
Give the measured solubility kinetic at 1 h of Cc1cncc(-c2ccc(N[C@@H]3CCNC[C@H]3OCC3CCS(=O)(=O)CC3)c3[nH]c(=O)c(C)cc23)c1 (racemic) .
217

Give the measured solubility kinetic at 1 h of "Cc1cncc(-c2cnc(N[C@@H]3CCNC[C@H]3OCC3CCS(=O)(=O)CC3)c3[nH]c(=O)c(C)cc23)c1" .
179

1: Cc1cncc(-c2cnc(N[C@@H]3CCNC[C@H]3OCC3CCCCC3)c3[nH]c(=O)c(C)cc23)c1
2: Cc1cc2ccnc(N[C@@H]3CCNC[C@H]3OCC3CCCCC3)c2[nH]c1=O (racemic)
3: Cc1cncc(-c2cnc(N[C@@H]3CCNC[C@H]3OC[C@H]3C[C@@H](C)S(=O)(=O)[C@@H](C)C3)c3[nH]c(=O)c(C)cc23)c1
Put the items in sequence by solubility kinetic at 1 h, from largest down. Answer by naming the labels in the order asked.
2, 1, 3
(2: 285 µM, 1: 170 µM, 3: 30 µM)

###

Target Or System: Chromatin remodeling regulator CECR2 (Homo sapiens)
Sequence (Q9BXF3 whole entry): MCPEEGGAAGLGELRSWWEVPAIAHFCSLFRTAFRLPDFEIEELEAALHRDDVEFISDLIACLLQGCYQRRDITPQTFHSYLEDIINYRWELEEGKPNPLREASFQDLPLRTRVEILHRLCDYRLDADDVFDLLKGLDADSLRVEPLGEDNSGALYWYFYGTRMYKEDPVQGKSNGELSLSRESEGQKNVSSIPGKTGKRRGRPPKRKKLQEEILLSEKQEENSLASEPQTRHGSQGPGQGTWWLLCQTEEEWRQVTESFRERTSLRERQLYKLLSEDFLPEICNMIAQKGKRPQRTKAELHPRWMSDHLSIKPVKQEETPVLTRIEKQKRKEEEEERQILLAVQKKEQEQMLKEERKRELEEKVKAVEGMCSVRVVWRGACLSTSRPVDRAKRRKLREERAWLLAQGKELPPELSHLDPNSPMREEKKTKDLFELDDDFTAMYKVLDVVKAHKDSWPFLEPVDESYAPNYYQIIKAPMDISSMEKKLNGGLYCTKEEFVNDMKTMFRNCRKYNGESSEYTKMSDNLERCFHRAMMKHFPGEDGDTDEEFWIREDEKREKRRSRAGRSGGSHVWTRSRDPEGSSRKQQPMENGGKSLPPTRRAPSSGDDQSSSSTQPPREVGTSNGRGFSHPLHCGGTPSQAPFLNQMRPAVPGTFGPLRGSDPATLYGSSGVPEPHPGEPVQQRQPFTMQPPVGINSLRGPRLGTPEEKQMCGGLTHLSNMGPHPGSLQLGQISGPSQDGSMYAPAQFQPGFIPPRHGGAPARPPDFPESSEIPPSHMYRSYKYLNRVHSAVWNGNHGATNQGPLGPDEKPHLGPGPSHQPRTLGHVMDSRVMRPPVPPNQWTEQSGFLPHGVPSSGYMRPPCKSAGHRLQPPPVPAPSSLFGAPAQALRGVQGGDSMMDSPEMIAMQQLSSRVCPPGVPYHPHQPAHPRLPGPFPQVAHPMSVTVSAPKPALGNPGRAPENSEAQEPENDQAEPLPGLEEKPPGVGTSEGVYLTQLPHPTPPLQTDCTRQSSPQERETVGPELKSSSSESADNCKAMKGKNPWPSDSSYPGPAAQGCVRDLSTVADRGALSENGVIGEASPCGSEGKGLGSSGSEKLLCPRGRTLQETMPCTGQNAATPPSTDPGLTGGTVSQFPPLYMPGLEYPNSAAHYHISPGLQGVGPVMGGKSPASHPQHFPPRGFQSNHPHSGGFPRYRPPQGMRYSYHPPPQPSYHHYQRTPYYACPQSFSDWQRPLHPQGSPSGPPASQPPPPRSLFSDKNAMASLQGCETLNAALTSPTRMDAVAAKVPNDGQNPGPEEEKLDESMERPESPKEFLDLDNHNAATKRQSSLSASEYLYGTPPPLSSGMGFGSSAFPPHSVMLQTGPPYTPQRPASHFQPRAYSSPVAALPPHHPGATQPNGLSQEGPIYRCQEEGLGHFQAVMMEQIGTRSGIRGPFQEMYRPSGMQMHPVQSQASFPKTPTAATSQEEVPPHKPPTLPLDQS
Test Description: Binding affinity to CECR2 (unknown origin) by BROMOscan panel based assay
Assay Readout: Ki (µM)
Write the value in µM as a bare number.

Give the measured Ki of "Cc1cncc(-c2cnc(N[C@@H]3CCN(C)C[C@H]3OCC3CCS(=O)(=O)CC3)c3[nH]c(=O)c(C)cc23)c1" .
0.794

###

Target Or System: ATPase family AAA domain-containing protein 2B (Homo sapiens)
Sequence (Q9ULI0 whole entry): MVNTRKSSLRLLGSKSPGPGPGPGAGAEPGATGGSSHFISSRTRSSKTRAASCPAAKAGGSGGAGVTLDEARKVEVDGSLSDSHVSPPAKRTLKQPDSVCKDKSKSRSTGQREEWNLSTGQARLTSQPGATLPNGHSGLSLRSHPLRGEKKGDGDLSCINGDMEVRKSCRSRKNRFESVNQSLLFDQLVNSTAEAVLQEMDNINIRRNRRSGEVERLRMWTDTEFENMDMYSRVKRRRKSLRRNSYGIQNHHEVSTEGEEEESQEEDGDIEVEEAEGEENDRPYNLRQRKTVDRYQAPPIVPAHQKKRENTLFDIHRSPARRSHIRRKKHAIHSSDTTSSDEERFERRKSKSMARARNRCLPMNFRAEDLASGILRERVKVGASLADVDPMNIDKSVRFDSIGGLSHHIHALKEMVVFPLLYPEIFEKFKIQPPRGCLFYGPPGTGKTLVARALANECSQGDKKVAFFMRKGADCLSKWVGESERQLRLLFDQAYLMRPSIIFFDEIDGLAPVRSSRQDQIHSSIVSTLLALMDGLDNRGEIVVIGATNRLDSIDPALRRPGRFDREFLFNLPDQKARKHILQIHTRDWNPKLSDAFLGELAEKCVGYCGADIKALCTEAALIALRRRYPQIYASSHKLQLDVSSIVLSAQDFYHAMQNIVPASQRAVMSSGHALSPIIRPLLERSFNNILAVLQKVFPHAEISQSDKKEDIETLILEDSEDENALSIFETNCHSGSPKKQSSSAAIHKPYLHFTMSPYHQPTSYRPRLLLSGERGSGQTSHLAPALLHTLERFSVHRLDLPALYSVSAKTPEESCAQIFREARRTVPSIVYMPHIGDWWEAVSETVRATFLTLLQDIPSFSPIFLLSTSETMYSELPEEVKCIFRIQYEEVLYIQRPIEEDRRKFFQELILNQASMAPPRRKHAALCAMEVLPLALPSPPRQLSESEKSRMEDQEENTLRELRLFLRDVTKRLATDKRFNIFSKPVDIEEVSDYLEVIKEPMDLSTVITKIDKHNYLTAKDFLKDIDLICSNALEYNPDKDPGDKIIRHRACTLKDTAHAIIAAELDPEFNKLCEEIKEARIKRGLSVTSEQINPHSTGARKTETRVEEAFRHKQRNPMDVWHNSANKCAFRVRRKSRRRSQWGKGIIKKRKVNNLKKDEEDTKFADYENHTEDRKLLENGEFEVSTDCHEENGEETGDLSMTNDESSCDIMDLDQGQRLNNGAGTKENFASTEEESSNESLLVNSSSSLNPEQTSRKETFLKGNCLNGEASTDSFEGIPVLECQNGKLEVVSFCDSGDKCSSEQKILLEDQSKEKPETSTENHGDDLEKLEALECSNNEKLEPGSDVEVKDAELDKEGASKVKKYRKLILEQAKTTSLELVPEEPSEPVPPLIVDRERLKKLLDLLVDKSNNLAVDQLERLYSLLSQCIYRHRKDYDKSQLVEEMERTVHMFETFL
Test Description: Binding affinity to ATAD2B (unknown origin) by BROMOscan panel based assay
Assay Readout: Ki (nM)
Write the value in nM as a bare number.

Enter reported Ki observed with ATPase family AAA domain-containing protein 2B (Homo sapiens) for "Cc1cncc(-c2cnc(N[C@@H]3CCN(C)C[C@H]3OCC3CCS(=O)(=O)CC3)c3[nH]c(=O)c(C)cc23)c1"
39.8
